Below, each entry is listed with its recorded inhibition.
# target: Hepcidin (Homo sapiens) (UniProt P81172)
# Sequence (P81172 60-84 limits assumed): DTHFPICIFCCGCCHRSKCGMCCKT
# protocol: Inhibition of human hepcidin-stimulated recombinant C-terminal Halo-tagged human FPN internalization in MDCK cells at 10 uM incubated for 15 to 20 mins by Halo-tagged TMR based fluorescence assay relative to control
# Type: cell-based

[
  {
    "structure.notation": "Oc1ccccc1/C=N/Nc1cc(N2CCOCC2)nc(N2CCOCC2)n1",
    "assay.result": "> 50%"
  }
]

inhibition reading for `COc1ccc(O)c(/C=N/Nc2nc(N3CCOCC3)nc(N3CCOCC3)n2)c1` : > 50%

The molecule `Nc1nc(-c2ccccn2)nc(N)c1Cc1ccccc1F` showed inhibition equal to < 50%

inhibition reported for this molecule `c1ccc(N(c2ccccc2)c2nc(N3CCOCC3)nc(-n3ccnc3)n2)cc1` : > 50%

molecule `Cc1nc(-c2ccccn2)nc(NCCNc2ccc(C(F)(F)F)cn2)c1Cl` , inhibition observed: < 50%

Data point: `CN(c1ccccc1)c1nc(N2CCOCC2)nc(-n2ccnc2)n1` ; inhibition = < 50%
